Examples of molecules with documented Ratio of intensity inside:outside FUS-SNAP Condensates Day 1 follow.
TARGET OF ASSAY: FUS-SNAP condensates (Homo sapiens, UniProt P35637)
Sequence (P35637 whole entry): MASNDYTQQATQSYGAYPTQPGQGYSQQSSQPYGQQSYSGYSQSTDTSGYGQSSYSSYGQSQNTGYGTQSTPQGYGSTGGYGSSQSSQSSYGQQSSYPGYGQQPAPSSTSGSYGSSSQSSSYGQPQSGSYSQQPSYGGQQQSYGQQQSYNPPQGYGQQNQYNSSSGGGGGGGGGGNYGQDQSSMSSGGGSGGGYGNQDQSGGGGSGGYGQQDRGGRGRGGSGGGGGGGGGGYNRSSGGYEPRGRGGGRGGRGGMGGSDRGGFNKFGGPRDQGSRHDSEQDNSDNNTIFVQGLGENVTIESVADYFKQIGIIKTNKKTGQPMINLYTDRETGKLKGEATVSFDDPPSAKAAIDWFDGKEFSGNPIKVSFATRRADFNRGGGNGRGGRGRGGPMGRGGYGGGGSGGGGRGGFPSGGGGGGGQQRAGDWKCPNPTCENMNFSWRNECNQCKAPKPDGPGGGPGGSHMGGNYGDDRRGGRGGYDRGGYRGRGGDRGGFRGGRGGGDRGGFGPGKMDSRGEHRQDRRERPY
ASSAY REMARKS: Fluorescence imaging of dye partitioning in FUS-SNAP condensates (I-in, I-out)
Assay type: physicochemical
TEST CONTEXT: I-in:I-out; Day 1; 10 μM dye
// response body must contain only the number

{"MOLECULE": "COC(=O)c1ccccc1-c1c2ccc(=N)cc-2oc2cc(N)ccc12.Cl", "NUMBER": 1.3}
{"MOLECULE": "CC(=O)Oc1ccc2c(c1)Oc1cc(OC(C)=O)ccc1C21OC(=O)c2ccccc21 [Dye 9, Fluorescein diacetate]", "NUMBER": 1.9}
{"MOLECULE": "O=C1OC2(c3ccc(O[C@@H]4O[C@H](CO)[C@H](O)[C@H](O)[C@H]4O)cc3Oc3cc(O[C@@H]4O[C@H](CO)[C@H](O)[C@H](O)[C@H]4O)ccc32)c2ccccc21 [Dye 12, Fluorescein di(β-D-galacto-pyranoside)]", "NUMBER": "−2.3"}
{"MOLECULE": "O=C1OC2(c3ccc(O)cc3Oc3cc(O)ccc32)c2ccccc21", "NUMBER": 1.7}
{"MOLECULE": "CCN(CC)c1ccc2c(-c3ccccc3C(=O)O)c3ccc(=[N+](CC)CC)cc-3oc2c1", "NUMBER": 4.4}
{"MOLECULE": "CC(=O)c1cc2cc3c4c(c2oc1=O)CCCN4CCC3", "NUMBER": 2.1}

Could you now consider this next molecule?
Task: Could you share which Ratio of intensity inside:outside FUS-SNAP Condensates Day 1 value was measured for N=C(N)c1ccc(-c2cc3ccc(C(=N)N)cc3[nH]2)cc1 ?
Result: 4.6
